biological target: F508delCFTR (Homo sapiens, UniProt P13569, DEL508-508); construct: expressed in transfected cells; host or cells: CFBE41o- human lung-derived epithelial cells (CFBE4lo-F508delCFTR-HRP), doxycycline-inducible; assay: Cell Surface Expression-Horse Radish Peroxidase (CSE-HRP) Assay; assay type: cell-based; settings: with co-corrector (2 μM of 3-[(2R,4R)-4-({[1-(2,2-difluoro-1,3-benzodioxol-5-yl)cyclopropyl]carbonyl}amino)-7-methoxy-3,4-dihydro-2H-chromen-2-yl]benzoic acid); read-out: EC50 (with co-corrector)
Sequence (P13569 with tags, fused parts or gaps DEL508-508): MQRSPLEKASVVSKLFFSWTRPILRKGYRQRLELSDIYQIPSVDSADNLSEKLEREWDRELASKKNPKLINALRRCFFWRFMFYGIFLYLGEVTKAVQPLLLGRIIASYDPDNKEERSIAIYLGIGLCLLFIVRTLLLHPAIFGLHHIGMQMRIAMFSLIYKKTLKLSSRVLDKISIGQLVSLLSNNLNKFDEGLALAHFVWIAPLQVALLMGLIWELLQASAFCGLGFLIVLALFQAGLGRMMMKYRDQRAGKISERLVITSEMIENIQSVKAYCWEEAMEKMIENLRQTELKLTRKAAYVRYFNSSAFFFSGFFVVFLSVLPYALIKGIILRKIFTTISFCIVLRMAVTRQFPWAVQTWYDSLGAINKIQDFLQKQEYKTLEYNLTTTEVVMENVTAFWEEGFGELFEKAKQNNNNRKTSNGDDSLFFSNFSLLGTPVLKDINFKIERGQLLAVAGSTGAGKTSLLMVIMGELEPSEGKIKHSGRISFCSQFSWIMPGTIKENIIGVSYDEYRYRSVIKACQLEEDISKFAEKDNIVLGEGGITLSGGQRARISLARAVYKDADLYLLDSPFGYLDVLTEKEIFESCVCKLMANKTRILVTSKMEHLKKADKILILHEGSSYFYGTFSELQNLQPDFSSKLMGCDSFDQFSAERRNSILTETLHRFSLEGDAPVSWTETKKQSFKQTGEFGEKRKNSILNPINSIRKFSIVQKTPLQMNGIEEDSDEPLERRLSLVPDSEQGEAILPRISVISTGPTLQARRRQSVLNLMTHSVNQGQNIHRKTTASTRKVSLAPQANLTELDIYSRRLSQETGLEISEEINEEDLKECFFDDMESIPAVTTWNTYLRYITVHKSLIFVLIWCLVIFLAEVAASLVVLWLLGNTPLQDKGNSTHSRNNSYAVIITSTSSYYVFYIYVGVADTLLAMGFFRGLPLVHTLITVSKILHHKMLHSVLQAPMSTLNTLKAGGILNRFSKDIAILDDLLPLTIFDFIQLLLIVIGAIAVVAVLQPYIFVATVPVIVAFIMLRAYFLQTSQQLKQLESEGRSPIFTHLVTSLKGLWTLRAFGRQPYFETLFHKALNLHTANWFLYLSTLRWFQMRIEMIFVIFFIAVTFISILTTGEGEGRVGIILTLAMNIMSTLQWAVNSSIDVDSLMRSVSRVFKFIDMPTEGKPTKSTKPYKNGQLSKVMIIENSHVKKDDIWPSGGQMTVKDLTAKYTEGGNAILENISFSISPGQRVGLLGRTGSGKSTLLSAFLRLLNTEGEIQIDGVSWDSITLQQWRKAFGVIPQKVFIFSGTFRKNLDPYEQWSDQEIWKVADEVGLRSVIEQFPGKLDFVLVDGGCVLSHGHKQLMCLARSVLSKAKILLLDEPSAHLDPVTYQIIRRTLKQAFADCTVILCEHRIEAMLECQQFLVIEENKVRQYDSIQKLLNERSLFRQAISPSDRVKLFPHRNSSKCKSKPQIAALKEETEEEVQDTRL
I'd be grateful if you could share measured EC50 for these entries.

Task item: For the compound COCCOc1ccc(C(F)(F)F)cc1CN[C@@H]1[C@@H](C(C)(C)C)[C@H](C(=O)O)N(C(=O)C2CCCCC2)[C@@H]1c1ccccc1 (racemic) , give its measured EC50 value.
Reply: 1000 to 10000 nM

Task item: For the compound COc1ccc(C(C)(C)C)cc1CN[C@H]1[C@H](C(C)(C)C)[C@@H](C(=O)O)N(C(=O)[C@H]2CCCCO2)[C@H]1c1cccnc1N(C)C , give its measured EC50 value.
Reply: 1000 to 10000 nM

Task item: For the compound COc1ccc(C(C)(C)C)cc1CN[C@H]1[C@H](C(C)(C)C)[C@@H](C(=O)O)N(C(=O)C2CCCC(F)(F)C2)[C@H]1c1cccnc1N(C)C (single isomer, unassigned) [Example 44] , give its measured EC50 value.
Reply: < 1000 nM

Task item: For the compound COc1ccc(C2CC3CCC2C3)cc1CN[C@H]1[C@H](C(C)(C)OC)[C@@H](C(=O)O)N(C(=O)C2CCCCC2)[C@H]1c1ccccc1 (stereo partly drawn) , give its measured EC50 value.
Reply: < 1000 nM

Task item: For the compound COc1ccc(C(C)(C)C)cc1CN[C@H]1[C@H](C(C)(C)OC)[C@@H](C(=O)O)N(C(=O)C2CCCCC2)[C@H]1c1cccnc1N(C)C , give its measured EC50 value.
Reply: < 1000 nM

Task item: For the compound COc1cc(C(F)(F)F)ccc1CN[C@@H]1[C@@H](C(C)(C)C)[C@H](C(=O)O)N(C(=O)C2CCC3(CC2)CC3)[C@@H]1c1ccccc1 (racemic) , give its measured EC50 value.
Reply: 1000 to 10000 nM

Task item: For the compound CC(C)(C)[C@H]1[C@H](NCc2ccc(F)cc2C(F)(F)F)[C@H](c2ccccc2)N(C(=O)C2CCCCC2)[C@@H]1C(=O)O , give its measured EC50 value.
Reply: < 1000 nM

Task item: For the compound COc1ccc(-c2cnn(C)c2)cc1CN[C@H]1[C@H](C(C)(C)C)[C@@H](C(=O)O)N(C(=O)C2CCCCC2)[C@H]1c1ccccc1 , give its measured EC50 value.
Reply: 1000 to 10000 nM

Task item: For the compound CC(C)(O)c1cc(Cl)nc(N[C@H]2[C@H](C(C)(C)C)[C@@H](C(=O)O)N(C(=O)C3CCCCC3)[C@H]2c2ccccc2)c1 , give its measured EC50 value.
Reply: 1000 to 10000 nM

Task item: For the compound CC(C)(C)[C@@H]1[C@@H](NCc2cc(C(F)(F)F)cnc2N)[C@@H](c2ccccc2)N(C(=O)C2CCCCC2)[C@H]1C(=O)O (racemic) , give its measured EC50 value.
Reply: 1000 to 10000 nM

Task item: For the compound COCC1(c2ccc(OC)c(CN[C@H]3[C@H](C(C)(C)C)[C@@H](C(=O)O)N(C(=O)C4CCCCC4)[C@H]3c3ccccc3)c2)CC1 , give its measured EC50 value.
Reply: 1000 to 10000 nM

Task item: For the compound COc1ccc(CC(C)C)cc1CN[C@H]1[C@H](C(C)(C)C)[C@@H](C(=O)O)N(C(=O)C2CCCCC2)[C@H]1c1ccccc1 , give its measured EC50 value.
Reply: < 1000 nM
